Reference source for all entries: patent US20250296960A1

Target: human GLP-1 receptor (GLP-1R), expressed on CHO-K1 cells (human, UniProt P43220 24-463)
Assay: cell-based or functional assay
Numbered stars: 1 amine (or outer) side, 2 acyl side, 3 side chain; on linkers, the order of the positions; unused ones are H or OH. Square brackets hold non-standard residues; d marks the D form. Primed or numbered codes have the meaning given here. Side chains are listed from the residue outwards. Ends that are not written are not given here. * marks the point of attachment. C18 = C18 fatty acid (C16-C22 fatty acids conjugated via γGlu/8-amino-3,6-dioxaoctanoic acid spacers); C18″ = C18 fatty acid moiety (of 2OEG-γGlu-C18, K*); γGlu = O=C(O)[C@H](CCC(=O)[*:2])N[*:1]; αMeR = C[C@](N)(CCCNC(=N)N)C(=O)O; AEEA = NCCOCCOCC(=O)O; Aib = CC(C)(N)C(=O)O
This listing pairs binders with measured Relative % to native ligand.
quantityName: Relative % to native ligand

> print(dat)
                                     binder  result
1  Y[Aib]QGTFTSDYSK([AEEA-AEEA-γGlu-C18″])LLDYMMQRDFVQWLLEGGPSSGAPPPS-NH2 [Peptide No. 5-3D]    219%
2  Y[Aib]QGTFTSDYSK([AEEA-AEEA-γGlu-C18])LLDYMMQHDFVQWLLEGGPSSGAPPPS-NH2 [SEQ ID NO. 99]     35%
3  Y[Aib]QGTFTSDYSK([AEEA-AEEA-γGlu-C18″])LLDYMMQ[αMeR]DFVQWLLEGGPSSGAPPPS-NH2 [SEQ ID NO. 101]    722%
4  Y[Aib]QGTFTSDYSK([AEEA-AEEA-γGlu-C18″])LLDYMMQQDFVQWLLEGGPSSGAPPPS-NH2 [SEQ ID NO. 100]     54%
